- TGT: human recombinant H-PGDS (Homo sapiens)
- TEST SUMMARY: Fluorescence Intensity h-PGDS TBA Enzyme Assay
- Format: biochemical
- CONDITION NOTES: 1:175,000 human recombinant H-PGDS, highest inhibitor concentration typically 1 μM
- Method: Fluorescence Intensity h-PGDSTBA Enzyme Assay Prostaglandin D Synthase (PGDS) converts the substrate prostaglandin H2 (PGH2) to prostaglandin D2. The depletion of PGH2 was measured via an Fe(II) reduction of the remaining PGH2 to malondialdehyde (MDA) and 12-HHT. […]
So basically: is IC50 under 90 nM? Then Condition met. Not under? Then Condition not met.

Example results:
{"columns": ["COMPOUND", "CATEGORY LABEL"],
 "data": [
  ["O=C(NCCc1ccncc1)c1ccc(-c2ccccc2)nc1", "Condition met"],
  ["CCOC(=O)C(CNC(=O)c1ccc(-c2cccc(F)c2)nc1)C1CCCC1 (stereo not drawn)", "Condition met"],
  ["CC(NC(=O)c1ccc(-c2cccc(F)c2)nc1)C1CC1 (stereo not drawn)", "Condition met"],
  ["CN1CCc2nc(N3CCC(NC(=O)c4ccc(-c5cccc(F)c5)nc4)C3)ncc2C1 (stereo not drawn)", "Condition met"],
  ["Cc1cccc(-c2ccc(C(=O)NC(C)c3ccncn3)cn2)c1 (stereo not drawn)", "Condition not met"],
  ["Cc1cccc(-c2ccc(C(=O)NCc3ccco3)cn2)c1", "Condition met"],
  ["NC(CC(=O)NC(=O)c1ccc(-c2cccc(F)c2)nc1)C1CC1 (stereo not drawn)", "Condition not met"],
  ["COc1cccc(-c2ccc(C(=O)NCc3nnc(-c4cccnc4)[nH]3)cn2)c1", "Condition not met"]
]}

Qu. Is IC50 strictly under 90 nM for the entry COc1cccc(-c2ccc(C(=O)NCCN3CCCCC3)cn2)c1 ?
Ans. Condition not met

Qu. Can you check Cc1cccc(-c2ccc(C(=O)NCc3ccc(Cl)cc3)cn2)c1 next?
Ans. Condition not met

Qu. Can you check Cc1cc(C)nc(CNC(=O)c2ccc(-c3cccc(F)c3)nc2)n1 next?
Ans. Condition not met

Qu. Can you check Cc1nnc(C(C)NC(=O)c2ccc(-c3cccc(F)c3)nc2)[nH]1 (stereo not drawn) next?
Ans. Condition not met

Qu. Can you check O=C(NCc1ccc(Cl)c(Cl)c1)c1ccc(-c2cccc(F)c2)nc1 next?
Ans. Condition met

Qu. Can you check CN(C)C(=O)N1[C@@H]2CC[C@H]1C[C@H](NC(=O)c1ccc(-c3cccc(F)c3)nc1)C2 next?
Ans. Condition met

Qu. Can you check COC(=O)c1ccc(CNC(=O)c2ccc(-c3cccc(F)c3)nc2)cc1 next?
Ans. Condition met

Qu. Can you check Cn1ccnc1C(NC(=O)c1ccc(-c2cccc(F)c2)nc1)c1c(F)cccc1F (stereo not drawn) next?
Ans. Condition not met

Qu. Can you check CC(C)OCCCNC(=O)c1ccc(-c2cccc(F)c2)nc1 next?
Ans. Condition met

Qu. Can you check COc1ccccc1-c1nnc(CCNC(=O)c2ccc(-c3cccc(F)c3)nc2)o1 next?
Ans. Condition met

Qu. Can you check Cc1cccc(-c2ccc(C(=O)NCCCNc3ccccn3)cn2)c1 next?
Ans. Condition met

Qu. Can you check O=C(NCC1CC2(CCN(Cc3cc[nH]n3)CC2)CO1)c1ccc(-c2cccc(F)c2)nc1 (stereo not drawn) next?
Ans. Condition met

Qu. Can you check COC(=O)CC(NC(=O)c1ccc(-c2ccccc2)nc1)c1cccnc1 (stereo not drawn) next?
Ans. Condition met

Qu. Can you check O=C(Nc1ccncc1)c1ccc(-c2ccc(F)cc2)nc1 next?
Ans. Condition not met

Qu. Can you check COC(=O)CNC(=O)c1ccc(-c2cccc(C)c2)nc1 next?
Ans. Condition not met

Qu. Can you check COc1ccc(C(CNC(=O)c2ccc(-c3cccc(C)c3)nc2)N2CCOCC2)cc1 (stereo not drawn) next?
Ans. Condition met

Qu. Can you check COc1cccc(-c2ccc(C(=O)NCCN3CCOCC3)cn2)c1 next?
Ans. Condition not met

Qu. Can you check COc1ccc(CCc2nnc(CNC(=O)c3ccc(-c4cccc(F)c4)nc3)[nH]2)cc1 next?
Ans. Condition met

----------
- TGT: human recombinant H-PGDS (Homo sapiens, UniProt O60760)
- Sequence (O60760 whole entry): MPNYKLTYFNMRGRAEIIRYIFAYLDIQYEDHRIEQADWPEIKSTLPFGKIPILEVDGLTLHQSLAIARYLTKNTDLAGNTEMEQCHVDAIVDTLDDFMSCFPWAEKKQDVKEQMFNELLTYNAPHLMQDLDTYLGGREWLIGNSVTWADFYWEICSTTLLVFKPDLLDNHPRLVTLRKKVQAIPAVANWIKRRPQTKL
- TEST SUMMARY: Fluorescence Intensity h-PGDS TBA Enzyme Assay
- Assay type: biochemical
- CONDITION NOTES: 1:175,000 human recombinant H-PGDS, highest inhibitor concentration typically 1 μM
The following compounds are shown together with reported IC50 values.
Use nM as the unit, but write only the number.

{"columns": ["COMPOUND", "PARAMETER MEASURED", "NUMBER"],
 "data": [
  ["CCCOCCCNC(=O)c1ccc(-c2cc(F)cc(F)c2)nc1", "IC50", 25.1],
  ["CCC1CCN(CCNC(=O)c2ccc(-c3cccc(F)c3)nc2)CC1", "IC50", 16.3],
  ["COc1cccc(-c2ccc(C(=O)NCCc3nc(C)no3)cn2)c1", "IC50", 324]
]}

Qu. Endpoint output: IC50 of O=C(NC[C@@H]1CCCN2CCCC[C@H]12)c1ccc(-c2cccc(F)c2)nc1 . Value?
Ans. 92.9

Qu. Can you check CCOC(=O)CC(NC(=O)c1ccc(-c2ccc(F)cc2)nc1)c1ccccc1 (stereo not shown) next?
Ans. 715

----------
The following compounds are shown together with reported pIC50 values.
- TGT: human recombinant H-PGDS (Homo sapiens, UniProt O60760)
- TEST SUMMARY: Fluorescence Intensity h-PGDS TBA Enzyme Assay
- Format: biochemical
- CONDITION NOTES: 1:175,000 human recombinant H-PGDS, highest inhibitor concentration typically 1 μM
# log scale: pIC50 equals minus log10 of the concentration in mol/L

{"columns": ["COMPOUND", "pIC50"],
 "data": [
  ["CN(C)CCNC(=O)c1ccc(-c2cccc(F)c2)nc1 [Example 158]", 6.47],
  ["O=C(NCCCNc1ccccn1)c1ccc(-c2ccc(F)cc2)nc1 [Example 261]", 7.04],
  ["Cc1noc(C)c1CCCNC(=O)c1ccc(-c2cccc(F)c2)nc1 [Example 91]", 8.19],
  ["O=C(NCCc1nnc(C2CC2)o1)c1ccc(-c2cccc(F)c2)nc1 [Example 207]", 7.57],
  ["Cc1noc(CC(NC(=O)c2ccc(-c3cccc(F)c3)nc2)c2ccccc2)n1 (stereo not drawn) [Example 87]", 7.45]
]}

Read the next record carefully.
Qu. Endpoint output: pIC50 of CCOC(=O)C(CNC(=O)c1ccc(-c2cccc(OC)c2)nc1)c1c(F)cccc1F (stereo not drawn) [Example 331] . Value?
Ans. 6.63

----------
- TGT: human recombinant H-PGDS (Homo sapiens)
- TEST SUMMARY: Fluorescence Intensity h-PGDS TBA Enzyme Assay
- Assay type: biochemical
- CONDITION NOTES: 1:175,000 human recombinant H-PGDS, highest inhibitor concentration typically 1 μM
So basically: is IC50 under 50 nM? Then 1. Not under? Then -1.

{"columns": ["MOLECULE", "TGT", "CATEGORY LABEL"],
 "data": [
  ["C[C@H](O)CNC(=O)c1ccc(-c2cccc(F)c2)nc1", "human recombinant H-PGDS (Homo sapiens)", -1],
  ["CCOC(=O)CC(NC(=O)c1ccc(-c2cccc(F)c2)nc1)c1ccc(Cl)cc1 (stereo not shown)", "human recombinant H-PGDS (Homo sapiens)", -1],
  ["CN1CCC(CCNC(=O)c2ccc(-c3ccccc3)nc2)CC1", "human recombinant H-PGDS (Homo sapiens)", 1],
  ["COc1ccc(CNC(=O)c2cnc(-c3cccc(F)c3)c(Cl)c2)cc1OC", "human recombinant H-PGDS (Homo sapiens)", 1],
  ["CN(C)CC(C)(C)CNC(=O)c1ccc(-c2ccccc2)nc1", "human recombinant H-PGDS (Homo sapiens)", -1]
]}

Now look at this one.
Qu. Is IC50 strictly under 50 nM for the entry COC(=O)CNC(=O)[C@H](C)NC(=O)c1ccc(-c2cccc(F)c2)nc1 ?
Ans. 1

----------
- TGT: human recombinant H-PGDS (Homo sapiens, UniProt O60760)
- TEST SUMMARY: Fluorescence Intensity h-PGDS TBA Enzyme Assay
- Assay type: biochemical
- CONDITION NOTES: 1:175,000 human recombinant H-PGDS, highest inhibitor concentration typically 1 μM
- Description: Fluorescence Intensity h-PGDSTBA Enzyme Assay Prostaglandin D Synthase (PGDS) converts the substrate prostaglandin H2 (PGH2) to prostaglandin D2. The depletion of PGH2 was measured via an Fe(II) reduction of the remaining PGH2 to malondialdehyde (MDA) and 12-HHT. […]
The following compounds are shown together with reported IC50 values.
Use nM as the unit, but write only the number.

Look over these answered cases.
{"columns": ["COMPOUND", "MEASUREMENT UNITS", "NUMBER"],
 "data": [
  ["COc1cccc(-c2ccc(C(=O)NC3CCOC3=O)cn2)c1 (centres unmarked) [Example 293]", "nM", 508],
  ["CCN1CCCC(CNC(=O)c2ccc(-c3cccc(F)c3)nc2)C1 (centres unmarked) [Example 114]", "nM", 236],
  ["CCOC(=O)CCCNC(=O)c1ccc(-c2ccccc2)nc1 [Example 386]", "nM", 23.2]
]}

Read the next record carefully.
Qu. Endpoint output: IC50 of CCOC(=O)CC(NC(=O)c1ccc(-c2cccc(OC)c2)nc1)c1ccccc1 (centres unmarked) [Example 272] . Value?
Ans. 474

Source: patent US20110306597A1
